- measurement.target: Discoidin domain-containing receptor 2 (Homo sapiens);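 also: reported figure is the mean inhibition of DDR2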
- Sequence (whole entry): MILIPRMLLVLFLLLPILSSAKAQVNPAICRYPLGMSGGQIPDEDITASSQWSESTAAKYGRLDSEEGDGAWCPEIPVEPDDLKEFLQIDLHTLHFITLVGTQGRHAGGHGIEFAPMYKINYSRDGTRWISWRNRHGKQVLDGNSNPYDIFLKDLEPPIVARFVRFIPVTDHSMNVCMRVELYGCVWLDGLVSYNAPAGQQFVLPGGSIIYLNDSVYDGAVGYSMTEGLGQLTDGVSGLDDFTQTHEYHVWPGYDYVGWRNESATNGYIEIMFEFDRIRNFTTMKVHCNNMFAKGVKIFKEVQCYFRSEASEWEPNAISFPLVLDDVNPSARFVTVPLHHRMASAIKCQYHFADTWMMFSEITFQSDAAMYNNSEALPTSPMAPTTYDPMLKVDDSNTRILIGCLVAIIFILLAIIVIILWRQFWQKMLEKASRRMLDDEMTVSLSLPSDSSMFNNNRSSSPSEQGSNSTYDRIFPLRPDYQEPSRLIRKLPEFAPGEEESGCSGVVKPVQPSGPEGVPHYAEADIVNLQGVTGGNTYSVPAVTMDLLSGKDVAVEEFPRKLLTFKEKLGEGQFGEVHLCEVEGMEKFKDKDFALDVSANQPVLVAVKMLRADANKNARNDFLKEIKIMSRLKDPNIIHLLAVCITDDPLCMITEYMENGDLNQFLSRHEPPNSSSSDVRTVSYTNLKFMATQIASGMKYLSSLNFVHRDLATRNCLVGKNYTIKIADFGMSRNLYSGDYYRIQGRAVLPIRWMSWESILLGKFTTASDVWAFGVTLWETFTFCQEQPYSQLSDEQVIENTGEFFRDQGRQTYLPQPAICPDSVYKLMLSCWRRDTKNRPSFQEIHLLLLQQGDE
- run.parameters: at 1 µM

smiles.notation | inhibition / %
CC(C)c1ccc(Nc2nccc(-c3cnn4ncccc34)n2)cc1 | 0.75
COc1cc(Nc2nccc(-c3cnn4ncccc34)n2)cc(OC)c1 | 8.7
CS(=O)(=O)CCNCc1nc(-c2ccc3ncnc(Nc4ccc(OCc5cccc(C(F)(F)F)c5)cc4)c3c2)cs1 | 5.59

Attribution: ChEMBL document CHEMBL1961873
